molecular target: hMT2 (Homo sapiens); construct: expressed in transfected cells; membranes or whole cells; assay: [125I]-2IMLT competition binding, CHO-K1 membranes, hMT2; conditions: hMT2; approximate range in text; read-out: affinity for MT2 (range given)
Sequence (P49286 whole entry): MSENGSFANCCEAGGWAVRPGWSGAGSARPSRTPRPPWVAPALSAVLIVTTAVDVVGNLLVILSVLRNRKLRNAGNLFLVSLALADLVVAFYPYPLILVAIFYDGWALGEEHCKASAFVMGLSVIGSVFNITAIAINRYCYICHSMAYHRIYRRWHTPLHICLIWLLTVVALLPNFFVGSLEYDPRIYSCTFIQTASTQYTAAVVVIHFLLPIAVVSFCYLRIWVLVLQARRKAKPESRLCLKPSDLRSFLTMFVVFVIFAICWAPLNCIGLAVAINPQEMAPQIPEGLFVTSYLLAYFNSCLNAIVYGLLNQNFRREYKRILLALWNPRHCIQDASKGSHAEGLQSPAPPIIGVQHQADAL
pKi: −log10 of the molar value.
Quantity Measured: pKi

{"columns": ["Query Smiles", "Quantity Measured", "Value Observed"],
 "data": [
  ["COc1cc(I)c(Cc2cc(OC)c(OC)cc2CC(=O)OC(C)(C)C)cc1OC", "pKi", "~8.00"]
]}

---

Entries annotated with measured Emax
target: hMT2 (Homo sapiens); construct: expressed in transfected cells; membranes or whole cells; assay: [35S]-GTPγS binding assay, hMT2; format: biochemical; conditions: percentage of melatonin (1 μM = 100%)
Quantity Measured: Emax (%)

{"columns": ["Query Smiles", "Value Relation Sign", "Value Observed"],
 "data": [
  ["COc1cc(I)c(Cc2cc(OC)c(OC)cc2CC(=O)OC(C)(C)C)cc1OC", "=", 67],
  ["COc1ccc2[nH]cc(CCNC(=O)CI)c2c1", ">", 100],
  ["COc1ccc2[nH]c(-c3cccc4ccccc34)c(CCNC(=O)CI)c2n1", "=", 43],
  ["COc1cc(Br)c(Cc2cc(OC)c(OC)cc2CC(=O)OC(C)(C)C)cc1OC", "=", 58]
]}
